tested.target: NS1 RBD H3N2 (Influenza A virus (H3N2)) (UniProt I6T1Z2)
assay.remarks: EMSA
reported.metric: Kd (nM)
Give a bare numeral; the unit nM is implied.

For GGUAACUGUUACAGUUACC / GGUAACUGUUACAGUUACC [AWFC01] the sequence record lists Kd as 3.7

---

tested.target: NS1 RBD H7N1 (Influenza A virus (avian H7N1; allele B)) (UniProt Q1PST0)
Sequence: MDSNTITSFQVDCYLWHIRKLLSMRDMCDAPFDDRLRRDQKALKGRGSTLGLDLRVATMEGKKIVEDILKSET
assay.remarks: competition EMSA
reported.metric: IC50 (nM)
Write the answer as a number in nM, unit excluded.

Summary for this sequence, GGUAACUGUAGAGGAUGGAGAGAUCCAUCCUCUACAGUUACC [shDM06-GAGA] : IC50 is 0.85

Value of measured IC50 for the entry GGUAACCACAUGAGUUACAGCAAAAGACCUGUGUAACUCAUGCUGUUACC [DM01-midi] : 2.7

Looking up GGUAACAACUCGUCAUAGGUCACUUGAUUGAAGUAUGACGGGCUGUUACC [DM03-midi] , I see its IC50 listed as 2.8

// GGUAACUGUAGAGGUUACAGAGAUGUAACCUCUACAGUUACC [shDM02-GAGA] : IC50 value = 0.24

For record GGUAACUGUAGAGGUUACAGAGAUGUAACCUCACCAGUUACC [shDM03-GAGA] the listed IC50 is 0.64

---

tested.target: NS1 RBD H5N1 (Influenza A virus (H5N1; allele A)) (UniProt Q5H7J4)
assay.remarks: EMSA
reported.metric: pKd
Units for pKd: none; it is -log10 of a concentration expressed in mol/L.

Entry GGUAACUGUUACAGUUACC / GGUAACUGUUACAGUUACC [AWFC01] ; pKd = 9.01

---

tested.target: NS1 RBD H5N1 (Influenza A virus (H5N1; allele A))
assay.remarks: competition EMSA
Task for the reader: assign each of the following sequences its reported pIC50.
Keep it numeric: pIC50 is minus log10 of the concentration in mol/L.

pIC50 recorded for this sequence, GGUAACUGUUACAGUUACC / GGUAACUGUUACAGUUACC [AWFC01] , is 9.00

Item: GGUAACUGUAGAGGAUGGAGAGAUCCAUCCUCUACAGUUACC [shDM06-GAGA] | pIC50: 8.96

Query GGUAACUGUAGAGGUUACAGAGAUGUAACCUCACCAGUUACC [shDM03-GAGA] yields pIC50 of 8.92

Input CGCCUGUGUAGAGGUUACAGAGAUGUAACCUCACCACAGGCG [shDM05-GAGA] . Output pIC50: 7.00

# pIC50 (sequence: GGUAACAACUCGUCAUAGGUCACUUGAUUGAAGUAUGACGGGCUGUUACC [DM03-midi] ) is 8.74

---

Tested on: NS1 RBD pdmH1N1 (Influenza A virus (pandemic H1N1))
assay.remarks: EMSA
reported.metric: pKd
The value called pKd is obtained by taking minus log10 of the concentration in mol/L.

get_value(item= GGUAACUGUUACAGUUACC / GGUAACUGUUACAGUUACC [AWFC01] , readout=pKd) returns 8.69
